Can you tell me EC50 for the items I'm about to list?
Test system: HIV-1
test protocol: microbe, parasite or virus in culture
condition label: Human immunodeficiency virus 1, read-out: EC50(HIV-1)
Respond with the bare value in nM.

IN: Consider the compound `CCCCCCCCCCCCCCCCCCCCOC(=O)P(=O)(O)OC[C@H]1O[C@@H](n2cc(C)c(=O)[nH]c2=O)C[C@@H]1N=[N+]=[N-]` and give its measured EC50.
OUT: 50

IN: Any idea what its EC50 is? The compound is `Cc1cn([C@H]2C[C@H](N=[N+]=[N-])[C@@H](CO)O2)c(=O)[nH]c1=O`
OUT: 7
